AC50 values for the molecules below.
biological target: UniProt:P35462

- MOLECULE: "O=[N+]([O-])O[C@@H]1CO[C@H]2[C@@H]1OC[C@@H]2O [ISOSORBIDE MONONITRATE]"
  AC50: "> 30 µM"
- MOLECULE: "COc1ccc2c(c1)N(C[C@H](C)CN(C)C)c1ccccc1S2"
  AC50: "0.019 µM"
- MOLECULE: "N[C@@H](C(=O)N[C@@H]1C(=O)N2C(C(=O)O)=C(Cl)CC[C@H]12)c1ccccc1 [LORACARBEF ANHYDROUS]"
  AC50: "> 30 µM"

###

Reported AC50 for target or system UniProt P25929, by entry.
Sequence (P25929 whole entry): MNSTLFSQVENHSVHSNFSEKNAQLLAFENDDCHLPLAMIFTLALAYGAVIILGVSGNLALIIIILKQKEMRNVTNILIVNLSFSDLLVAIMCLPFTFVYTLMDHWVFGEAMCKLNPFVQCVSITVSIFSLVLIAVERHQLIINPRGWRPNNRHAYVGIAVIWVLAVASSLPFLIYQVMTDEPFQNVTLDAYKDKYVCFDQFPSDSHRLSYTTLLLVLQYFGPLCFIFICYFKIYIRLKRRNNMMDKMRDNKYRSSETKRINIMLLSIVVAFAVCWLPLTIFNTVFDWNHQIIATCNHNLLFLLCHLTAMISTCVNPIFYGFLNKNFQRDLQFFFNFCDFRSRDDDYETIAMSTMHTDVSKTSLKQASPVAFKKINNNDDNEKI
MEASUREMENT TYPE: AC50

- COMPOUND: "O=C(O)[C@H](CC(=O)N1C[C@H]2CCCC[C@H]2C1)Cc1ccccc1 [MITIGLINIDE]"
  TEST SYSTEM: "UniProt P25929"
  RESULT: "> 10 µM"
- COMPOUND: "NCC(CC(=O)O)c1ccc(Cl)cc1 (stereo not given)"
  TEST SYSTEM: "UniProt P25929"
  RESULT: "> 30 µM"
- COMPOUND: "COc1ccccc1N1CCN(CCCNc2cc(=O)n(C)c(=O)n2C)CC1"
  TEST SYSTEM: "UniProt P25929"
  RESULT: "> 30 µM"
- COMPOUND: "CN1C(=O)OC(C)(C)C1=O"
  TEST SYSTEM: "UniProt P25929"
  RESULT: "> 10 µM"
- COMPOUND: "COc1ccc(CCNCC(O)COc2cccc(C)c2)cc1OC (stereo not given)"
  TEST SYSTEM: "UniProt P25929"
  RESULT: "> 10 µM"
- COMPOUND: "O=C(O[C@H]1C[C@H]2CC[C@@H](C1)[N+]21CCCC1)C(O)(c1ccccc1)c1ccccc1"
  TEST SYSTEM: "UniProt P25929"
  RESULT: "> 30 µM"
- COMPOUND: "COc1cc2nc(N(C)CCCNC(=O)C3CCCO3)nc(N)c2cc1OC (stereo not given)"
  TEST SYSTEM: "UniProt P25929"
  RESULT: "> 30 µM"
- COMPOUND: "COc1cc2c(N)nc(N3CCN(C(=O)OCC(C)(C)O)CC3)nc2c(OC)c1OC"
  TEST SYSTEM: "UniProt P25929"
  RESULT: "> 30 µM"
- COMPOUND: "CC(C)OC(=O)CCC/C=C\\C[C@@H]1[C@@H](CC[C@@H](O)CCc2ccccc2)[C@H](O)C[C@@H]1O"
  TEST SYSTEM: "UniProt P25929"
  RESULT: "> 30 µM"
- COMPOUND: "O=C(O)C1=C(CSc2nnnn2CS(=O)(=O)O)CS[C@@H]2[C@H](NC(=O)[C@H](O)c3ccccc3)C(=O)N12"
  TEST SYSTEM: "UniProt P25929"
  RESULT: "> 30 µM"
- COMPOUND: "CCN(CC)C(=O)N[C@H]1C[C@@H]2c3cccc4[nH]cc(c34)C[C@H]2N(C)C1 [TERGURIDE]"
  TEST SYSTEM: "UniProt P25929"
  RESULT: "> 30 µM"
- COMPOUND: "CCOc1ccccc1OCC1CNCCO1 (stereo not given)"
  TEST SYSTEM: "UniProt P25929"
  RESULT: "> 30 µM"
- COMPOUND: "COc1ccc2c3c1O[C@H]1C(=O)CC[C@@]4(O)[C@@H](C2)N(C)CC[C@]314"
  TEST SYSTEM: "UniProt P25929"
  RESULT: "> 30 µM"
- COMPOUND: "CCOC(=O)[N-]c1cn(N2CCOCC2)n[o+]1"
  TEST SYSTEM: "UniProt P25929"
  RESULT: "> 30 µM"
- COMPOUND: "CC(=O)OCC(=O)[C@@]12N=C(C)O[C@@H]1C[C@H]1[C@@H]3CCC4=CC(=O)C=C[C@]4(C)[C@H]3[C@@H](O)C[C@@]12C"
  TEST SYSTEM: "UniProt P25929"
  RESULT: "> 30 µM"

###

target: Alpha-1A adrenergic receptor (Homo sapiens); assay type: functional, cell-based; note: assay procedure not described here
Sequence (P35348 whole entry): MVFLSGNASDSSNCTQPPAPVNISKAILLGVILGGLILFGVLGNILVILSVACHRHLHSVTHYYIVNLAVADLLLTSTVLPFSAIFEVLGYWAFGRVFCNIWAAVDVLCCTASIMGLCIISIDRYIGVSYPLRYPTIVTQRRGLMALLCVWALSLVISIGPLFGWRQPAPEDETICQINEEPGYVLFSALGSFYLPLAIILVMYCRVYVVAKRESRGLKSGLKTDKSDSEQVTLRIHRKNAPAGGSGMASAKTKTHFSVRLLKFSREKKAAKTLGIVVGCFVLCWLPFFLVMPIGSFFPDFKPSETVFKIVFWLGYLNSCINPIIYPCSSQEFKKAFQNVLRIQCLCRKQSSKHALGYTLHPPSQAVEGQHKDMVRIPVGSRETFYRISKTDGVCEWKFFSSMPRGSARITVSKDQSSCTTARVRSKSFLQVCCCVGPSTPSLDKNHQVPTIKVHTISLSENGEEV
MEASUREMENT TYPE: AC50

- MOLECULE: "CC(C)C[C@H]1C(=O)N2CCC[C@H]2[C@]2(O)O[C@](NC(=O)[C@@H]3C=C4c5cccc6[nH]c(Br)c(c56)C[C@H]4N(C)C3)(C(C)C)C(=O)N12 [BROMOCRIPTINE]"
  RESULT: "1.07 µM"
- MOLECULE: "O=C(CCNNC(=O)c1ccncc1)NCc1ccccc1 [NIALAMIDE]"
  RESULT: "> 30 µM"
- MOLECULE: "CC(C)C[C@H]1C(=O)N2CCC[C@H]2[C@]2(O)O[C@](NC(=O)[C@@H]3C[C@@H]4c5cccc6[nH]cc(c56)C[C@H]4N(C)C3)(C(C)C)C(=O)N12 [DIHYDROERGOCRYPTINE]"
  RESULT: "5.77 µM"
- MOLECULE: "N[C@H](C(=O)O)[C@H](O)c1ccc(O)c(O)c1 [DROXIDOPA]"
  RESULT: "10.4 µM"
- MOLECULE: "Oc1c(Cl)cc(Cl)c2cccnc12 [CHLOROXINE]"
  RESULT: "> 30 µM"
- MOLECULE: "C[S+](CC[C@H](N)C(=O)[O-])C[C@H]1O[C@@H](n2cnc3c(N)ncnc32)[C@H](O)[C@@H]1O (stereo partly drawn) [ADEMETIONINE]"
  RESULT: "> 30 µM"
- MOLECULE: "N=c1ccn2c(n1)O[C@H]1[C@H](O)[C@@H](CO)O[C@H]12 [ANCITABINE]"
  RESULT: "> 30 µM"
- MOLECULE: "CS(=O)(=O)c1ccc(C2=C(c3ccccc3)C(=O)OC2)cc1 [ROFECOXIB]"
  RESULT: "> 30 µM"

###

Reported AC50 for target or system UniProt P06401, by entry.
Sequence (P06401 whole entry): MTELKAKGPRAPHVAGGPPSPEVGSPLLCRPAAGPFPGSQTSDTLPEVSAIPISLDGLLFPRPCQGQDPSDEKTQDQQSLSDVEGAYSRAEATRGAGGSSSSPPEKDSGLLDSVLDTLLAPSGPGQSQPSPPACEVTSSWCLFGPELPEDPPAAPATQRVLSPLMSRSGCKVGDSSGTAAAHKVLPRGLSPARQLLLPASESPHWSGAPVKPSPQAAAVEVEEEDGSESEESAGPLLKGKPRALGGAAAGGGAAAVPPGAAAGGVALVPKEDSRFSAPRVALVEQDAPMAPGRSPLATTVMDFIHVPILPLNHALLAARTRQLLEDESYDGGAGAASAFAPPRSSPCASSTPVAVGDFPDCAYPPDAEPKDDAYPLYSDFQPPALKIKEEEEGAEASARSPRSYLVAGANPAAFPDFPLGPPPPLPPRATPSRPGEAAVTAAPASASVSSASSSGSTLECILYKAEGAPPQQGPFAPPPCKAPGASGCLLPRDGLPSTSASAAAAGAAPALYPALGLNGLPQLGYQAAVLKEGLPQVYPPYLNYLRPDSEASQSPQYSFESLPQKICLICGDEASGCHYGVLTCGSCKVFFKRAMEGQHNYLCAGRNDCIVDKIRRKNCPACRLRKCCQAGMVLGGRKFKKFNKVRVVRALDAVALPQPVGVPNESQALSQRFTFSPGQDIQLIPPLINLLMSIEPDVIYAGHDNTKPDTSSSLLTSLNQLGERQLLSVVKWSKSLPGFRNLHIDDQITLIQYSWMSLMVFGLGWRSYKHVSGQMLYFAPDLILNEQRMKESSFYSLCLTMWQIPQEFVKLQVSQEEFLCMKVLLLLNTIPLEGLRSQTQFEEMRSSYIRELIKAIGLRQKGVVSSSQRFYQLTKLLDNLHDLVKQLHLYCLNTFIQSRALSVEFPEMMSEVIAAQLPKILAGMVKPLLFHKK

- MOLECULAR STRING: "CC(C)Nc1ncccn1"
  AC50: "> 30 µM"
- MOLECULAR STRING: "CCN(CC)CCc1nc(-c2ccccc2)no1"
  AC50: "> 30 µM"
- MOLECULAR STRING: "CC(=O)Nc1ccc(O)cc1"
  AC50: "> 30 µM"

###

AC50 values for the molecules below.
target: D(3) dopamine receptor (Homo sapiens, UniProt P35462); note: assay procedure not described here
Sequence (P35462 whole entry): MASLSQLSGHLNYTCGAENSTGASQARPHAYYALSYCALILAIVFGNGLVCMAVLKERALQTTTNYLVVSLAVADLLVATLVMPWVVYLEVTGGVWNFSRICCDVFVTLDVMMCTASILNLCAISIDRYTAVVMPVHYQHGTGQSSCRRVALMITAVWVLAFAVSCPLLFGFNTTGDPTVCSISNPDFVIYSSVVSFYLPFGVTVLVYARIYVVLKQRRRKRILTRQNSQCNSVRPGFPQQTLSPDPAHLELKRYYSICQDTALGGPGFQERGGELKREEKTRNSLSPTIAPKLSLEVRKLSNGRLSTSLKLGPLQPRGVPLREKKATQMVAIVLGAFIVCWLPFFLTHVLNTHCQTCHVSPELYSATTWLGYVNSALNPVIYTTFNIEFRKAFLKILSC

- MOLECULE: "CC[N+]1(C)[C@@H]2CC(OC(=O)[C@H](CO)c3ccccc3)C[C@H]1[C@@H]1O[C@@H]12 (some centres undefined) [OXITROPIUM]"
  TEST SYSTEM: "D(3) dopamine receptor (Homo sapiens, UniProt P35462)"
  AC50: "> 30 µM"
- MOLECULE: "O=C(O)c1cc(O)ccc1O [GENTISIC ACID]"
  TEST SYSTEM: "D(3) dopamine receptor (Homo sapiens, UniProt P35462)"
  AC50: "> 30 µM"
- MOLECULE: "Oc1c(Cl)cc(Cl)c2cccnc12 [CHLOROXINE]"
  TEST SYSTEM: "D(3) dopamine receptor (Homo sapiens, UniProt P35462)"
  AC50: "> 30 µM"
- MOLECULE: "CC(=O)c1ccc2c(c1)N(CCCN(C)C)c1ccccc1S2 [ACEPROMAZINE]"
  TEST SYSTEM: "D(3) dopamine receptor (Homo sapiens, UniProt P35462)"
  AC50: "0.0087 µM"
- MOLECULE: "CCN(CC)CCOC(=O)C(c1ccccc1)C1CCCCC1 (centres undefined) [DROFENINE]"
  TEST SYSTEM: "D(3) dopamine receptor (Homo sapiens, UniProt P35462)"
  AC50: "0.217 µM"
- MOLECULE: "OC(c1ccccc1)(c1ccccc1)C12CC[N+](CCOCc3ccccc3)(CC1)CC2"
  TEST SYSTEM: "D(3) dopamine receptor (Homo sapiens, UniProt P35462)"
  AC50: "> 30 µM"
- MOLECULE: "CC[C@@H](C(N)=O)N1CCCC1=O"
  TEST SYSTEM: "D(3) dopamine receptor (Homo sapiens, UniProt P35462)"
  AC50: "> 30 µM"
- MOLECULE: "COCCCN1CCC(NC(=O)c2cc(Cl)c(N)c3c2OCC3)CC1 [PRUCALOPRIDE]"
  TEST SYSTEM: "D(3) dopamine receptor (Homo sapiens, UniProt P35462)"
  AC50: "> 30 µM"
- MOLECULE: "Nc1nc2nc[nH]c2c(=S)[nH]1 [THIOGUANINE]"
  TEST SYSTEM: "D(3) dopamine receptor (Homo sapiens, UniProt P35462)"
  AC50: "> 30 µM"
- MOLECULE: "C=CCN1C[C@H](C(=O)N(CCCN(C)C)C(=O)NCC)C[C@@H]2c3cccc4[nH]cc(c34)C[C@H]21 [CABERGOLINE]"
  TEST SYSTEM: "D(3) dopamine receptor (Homo sapiens, UniProt P35462)"
  AC50: "0.003 µM"
- MOLECULE: "Cc1cn([C@H]2C[C@H](N=[N+]=[N-])[C@@H](CO)O2)c(=O)[nH]c1=O [ZIDOVUDINE]"
  TEST SYSTEM: "D(3) dopamine receptor (Homo sapiens, UniProt P35462)"
  AC50: "> 30 µM"
- MOLECULE: "O=C(O)c1ccccc1C(=O)Nc1ccc(S(=O)(=O)Nc2nccs2)cc1 [PHTHALYLSULFATHIAZOLE]"
  TEST SYSTEM: "D(3) dopamine receptor (Homo sapiens, UniProt P35462)"
  AC50: "> 30 µM"
- MOLECULE: "OC[C@@H](O)[C@H](O)[C@@H](O)CO [XYLITOL]"
  TEST SYSTEM: "D(3) dopamine receptor (Homo sapiens, UniProt P35462)"
  AC50: "> 30 µM"
- MOLECULE: "NC1CCN(c2c(F)cc3c(=O)c(C(=O)O)cn(C4CC4)c3c2Cl)C1 (centres undefined) [CLINAFLOXACIN]"
  TEST SYSTEM: "D(3) dopamine receptor (Homo sapiens, UniProt P35462)"
  AC50: "> 30 µM"

These data points were gathered from ChEMBL document CHEMBL5291721.
